assayed system: Fuc(a1-2)[GalNAc(a1-4)]Gal(b1-4)GlcNAc
assay method text: glycan array binding signal (z-score within array); higher = stronger binding
assay conditions: glycan notation: IUPAC condensed, linker removed
This excerpt belongs to a sample that is enriched for the strongest signals.
Listed here are binders together with their documented glycan array binding signal (z-score).

{"binder": "EUL D1A (Oryza sativa) (protein) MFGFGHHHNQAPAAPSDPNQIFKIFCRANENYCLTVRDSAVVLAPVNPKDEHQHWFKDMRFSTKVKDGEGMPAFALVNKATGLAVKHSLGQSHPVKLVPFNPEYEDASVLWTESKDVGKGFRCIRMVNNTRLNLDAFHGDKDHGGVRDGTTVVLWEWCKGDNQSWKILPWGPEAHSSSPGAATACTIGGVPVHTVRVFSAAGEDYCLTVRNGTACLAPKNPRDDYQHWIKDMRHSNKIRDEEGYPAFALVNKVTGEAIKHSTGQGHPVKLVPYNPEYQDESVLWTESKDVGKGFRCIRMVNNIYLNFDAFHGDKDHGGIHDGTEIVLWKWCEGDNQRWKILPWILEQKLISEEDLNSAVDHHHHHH", "reported endpoint": "glycan array binding signal (z-score)", "recorded value": -0.759}

Next binder, glycan array binding signal (z-score) to be filled in.
Briefly, glycan array binding signal (z-score) measured for Threefoil (Haloarcula marismortui) (protein) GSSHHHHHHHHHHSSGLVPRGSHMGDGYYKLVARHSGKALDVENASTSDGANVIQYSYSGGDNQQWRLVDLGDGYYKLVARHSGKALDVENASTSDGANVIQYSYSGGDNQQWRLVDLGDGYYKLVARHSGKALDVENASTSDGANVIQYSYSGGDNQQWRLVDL : -0.341

Values compiled from the supplement of paper PMC8728848.
